test system: Salmonella typhimurium; assay: Mutagenic activity in Salmonella Typhimurium TA100 assessed as number of his+ revertants at 100 ug/plate after 48 to 72 hrs by Ames test in absence of S9 fraction; format: toxicity, organism-based; settings: salmonella enterica subsp. enterica serovar typhimurium
measurement.type: Activity

>>> print(df.to_string())
                                  structure       system_under_test  numeric_readout
0                  C/C=C/c1c(OC)cc(OC)cc1OC  Salmonella typhimurium              138
1                  C/C=C/c1ccc(OC)c(OC)c1OC  Salmonella typhimurium              108
2                C/C=C/c1cc(OC)c(OC)c(OC)c1  Salmonella typhimurium              109
3  C/C=C/c1c(OC)ccc(OC)c1OC.CC(C)CCC[C@@H](C)[C@H]1CC[C@H]2[C@@H]3CC=C4C[C@@H](O)CC[C@]4(C)[C@H]3CC[C@]12C  Salmonella typhimurium              112

----------
system: Salmonella typhimurium; assay: Mutagenic activity in Salmonella Typhimurium TA100 assessed as number of his+ revertants at 500 ug/plate after 48 to 72 hrs by Ames test in absence of S9 fraction; type: toxicity, organism-based; conditions: salmonella enterica subsp. enterica serovar typhimurium
Recorded measurements of Activity, one per entry
measurement.type: Activity

>>> df
                                  structure  numeric_readout
0  C/C=C/c1c(OC)ccc(OC)c1OC.CC(C)CCC[C@@H](C)[C@H]1CC[C@H]2[C@@H]3CC=C4C[C@@H](O)CC[C@]4(C)[C@H]3CC[C@]12C              104
1                  C/C=C/c1c(OC)cc(OC)cc1OC              134
2                C/C=C/c1cc(OC)c(OC)c(OC)c1               88
3                  C/C=C/c1ccc(OC)c(OC)c1OC              116

----------
The following compounds are listed with their measured Activity values.
test system: Salmonella typhimurium; assay: Mutagenic activity in Salmonella Typhimurium TA97 assessed as number of his+ revertants at 100 ug/plate after 48 to 72 hrs by Ames test in presence of S9 fraction; assay type: toxicity, organism-based; settings: salmonella enterica subsp. enterica serovar typhimurium
measurement.type: Activity

In [3]: df
Out[3]:
                                  structure  measurement_type  numeric_readout
0                  C/C=C/c1c(OC)cc(OC)cc1OC          Activity              175
1                  C/C=C/c1ccc(OC)c(OC)c1OC          Activity              212
2                C/C=C/c1cc(OC)c(OC)c(OC)c1          Activity              194
3  C/C=C/c1c(OC)ccc(OC)c1OC.CC(C)CCC[C@@H](C)[C@H]1CC[C@H]2[C@@H]3CC=C4C[C@@H](O)CC[C@]4(C)[C@H]3CC[C@]12C          Activity              191
